Sourced from paper PMC7340670

procedure-text: Plasma pharmacokinetics in the phase I study
Format: in vivo, human
conditions: human, plasma, oral, 800 mg/day, Part 1, Day 8 (multiple administration), 800 mg/day, n=6; read-out: tmax Median
property-name: Tmax (h)
Numbers only, in h.

Per the record, CNC(=O)c1cc2c(Oc3ccc(NC(=S)NC(=O)Cc4ccccc4)cc3F)ccnc2cc1OC [TAS-115] has Tmax of 1.5

---

procedure-text: Plasma pharmacokinetics in the phase I study
Format: in vivo, human
conditions: human, plasma, oral, 650 mg/day, Part 2, Day 1 (single administration), 650 mg/day, n=6; read-out: tmax Median
property-name: Tmax
In your response, put the unit directly after the numeric value.

Per the record, CNC(=O)c1cc2c(Oc3ccc(NC(=S)NC(=O)Cc4ccccc4)cc3F)ccnc2cc1OC [TAS-115] has Tmax of 1 h

---

procedure-text: Plasma pharmacokinetics in the phase I study
Assay type: in vivo, human
conditions: human, plasma, oral, 300 mg/day, Part 1, Day 8 (multiple administration), 300 mg/day, n=2; read-out: AUC0-24 Mean (SD)
property-name: AUC(0-t) (ng·h/mL)
Numbers only, in ng·h/mL.

Per the record, CNC(=O)c1cc2c(Oc3ccc(NC(=S)NC(=O)Cc4ccccc4)cc3F)ccnc2cc1OC has AUC(0-t) of 32500

---

procedure-text: Plasma pharmacokinetics in the phase I study
Type: in vivo, human
conditions: human, plasma, oral, 650 mg/day, Part 2, Day 19 (multiple administration), 650 mg/day, n=6; read-out: Cmax Mean (SD)
property-name: Cmax (ng/mL)
Numbers only, in ng/mL.

Per the record, CNC(=O)c1cc2c(Oc3ccc(NC(=S)NC(=O)Cc4ccccc4)cc3F)ccnc2cc1OC [TAS-115] has Cmax of 7370

---

procedure-text: Plasma pharmacokinetics in the phase I study
Assay type: in vivo, human
conditions: human, plasma, oral, 800 mg/day, Part 1, Day 8 (multiple administration), 800 mg/day, n=6; read-out: t1/2 Mean (SD) (converted)
property-name: half-life (h)
Numbers only, in h.

Per the record, CNC(=O)c1cc2c(Oc3ccc(NC(=S)NC(=O)Cc4ccccc4)cc3F)ccnc2cc1OC [TAS-115] has half-life of 12.8

---

procedure-text: Plasma pharmacokinetics in the phase I study
Type: in vivo, human
conditions: human, plasma, oral, 650 mg/day, Expansion part, Empty Stomach, 650 mg/day, n=6; read-out: AUC0-24 Mean (SD)
property-name: AUC(0-t) (µg·h/mL)
Give bare numbers, in µg·h/mL.

Per the record, CNC(=O)c1cc2c(Oc3ccc(NC(=S)NC(=O)Cc4ccccc4)cc3F)ccnc2cc1OC has AUC(0-t) of 39.3

---

procedure-text: Plasma pharmacokinetics in the phase I study
Type: in vivo, human
conditions: human, plasma, oral, 650 mg/day, Part 1, Day 1 (single administration), 650 mg/day, n=6; read-out: AUC0-24 Mean (SD)
property-name: AUC(0-t)

Per the record, CNC(=O)c1cc2c(Oc3ccc(NC(=S)NC(=O)Cc4ccccc4)cc3F)ccnc2cc1OC has AUC(0-t) of 59700 ng·h/mL

---

procedure-text: Plasma pharmacokinetics in the phase I study
Assay type: in vivo, human
conditions: human, plasma, oral, 650 mg/day, Part 2, Day 1 (single administration), 650 mg/day, n=5; read-out: t1/2 Mean (SD) (converted)
property-name: half-life (min)
Give bare numbers, in min.

Per the record, CNC(=O)c1cc2c(Oc3ccc(NC(=S)NC(=O)Cc4ccccc4)cc3F)ccnc2cc1OC has half-life of 870
